- assayed target: recombinant SHP2 protein (AviTag-G4SG4S-SHP2(1-525)) (Homo sapiens)
- Construct: recombinant SHP2 protein (AviTag-G4SG4S-SHP2(1-525)); purchased VIVA Biotech Ltd (custom production)
- Sequence (Q06124 1-525): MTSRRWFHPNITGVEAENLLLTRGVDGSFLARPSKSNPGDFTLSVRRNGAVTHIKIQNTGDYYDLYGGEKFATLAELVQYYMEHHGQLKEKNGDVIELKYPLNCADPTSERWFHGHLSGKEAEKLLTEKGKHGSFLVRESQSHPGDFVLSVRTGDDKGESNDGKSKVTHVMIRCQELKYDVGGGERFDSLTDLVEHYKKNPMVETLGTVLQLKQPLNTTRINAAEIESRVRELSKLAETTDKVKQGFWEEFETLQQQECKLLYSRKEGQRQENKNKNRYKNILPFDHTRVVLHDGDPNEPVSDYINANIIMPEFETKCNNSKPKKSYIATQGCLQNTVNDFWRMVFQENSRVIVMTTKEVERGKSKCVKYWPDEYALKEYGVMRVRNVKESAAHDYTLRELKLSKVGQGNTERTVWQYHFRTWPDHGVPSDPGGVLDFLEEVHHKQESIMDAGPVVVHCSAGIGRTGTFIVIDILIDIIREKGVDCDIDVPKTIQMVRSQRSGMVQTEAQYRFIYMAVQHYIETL
- assay summary: Binding kinetic assay by surface plasmon resonance (SPR)
- condition description: Biacore T200, single cycle kinetic, 25° C, 1:1 Langmuir model
measurement name: koff

Need koff, item N[C@@H]1c2ccnn2CC12CCN(c1cnc(Sc3cccc(-n4cccn4)c3Cl)cn1)CC2 1.1e-05 s⁻¹

N[C@@H]1c2ccnn2CC12CCN(c1cnc(Sc3ccccc3F)cn1)CC2 ? 9.09e-05 s⁻¹

N[C@@H]1c2ccnn2CC12CCN(c1cnc(Sc3ccnc4ccccc34)cn1)CC2 ? 0.000183 s⁻¹

N[C@@H]1c2ccnn2CC12CCN(c1cnc(Sc3cccc(-n4ccnc4)c3Cl)cn1)CC2 ? 0.000293 s⁻¹

N[C@@H]1c2ccnn2CC12CCN(c1cnc(Oc3cccc(Cl)c3Cl)cn1)CC2 ? 0.000514 s⁻¹

Cc1cccc(Sc2cnc(N3CCC4(CC3)Cn3nccc3[C@H]4N)cn2)c1F ? 1.87e-05 s⁻¹

Cc1c(N2CCC3(CC2)Cn2nccc2[C@H]3N)nc(C)n(-c2cccc(Cl)c2Cl)c1=O (single isomer, unassigned) ? 0.000124 s⁻¹

Cc1c(F)ccc(Sc2cnc(N3CCC4(CC3)Cn3nccc3[C@H]4N)cn2)c1F ? 7.9e-05 s⁻¹

Reference source: patent US20260109699A1
